Test system: Total ATXN3 (tATXN3) protein
Experiment: Endogenous Total ATXN3 (tATXN3) Protein Assay (MSD immunoassay of cell lysates)
Type: cell-based
Conditions: average IC50, total ATXN3 protein in cell lysate after 48 h with compound (Table 1)
Listed molecules paired with reported IC50

# molecule, IC50
records = [
    ("Cc1c([C@@H]2CCC[C@H]2N)sc2c(NCc3cccs3)cc(Cl)nc12", "> 1000 nM"),
    ("N[C@H]1CC=CC[C@@H]1c1sc2c(NCc3nccs3)nc(Cl)nc2c1Cl", "30 to 300 nM"),
    ("C/C=C/CNc1cc(Cl)nc2c(Br)c([C@@H]3CC=CC[C@H]3N)sc12.C/C=C/CNc1cc(Cl)nc2c(Br)c([C@H]3CC=CC[C@@H]3N)sc12 (mixture of isomers)", "30 to 300 nM"),
    ("CC#Cc1c([C@@H]2CCCC[C@H]2N)n(C(F)F)c2c(NCc3ccco3)nc(Cl)nc12", "30 to 300 nM"),
]
